Where do these numbers come from? They come from the RNAGym collection of RNA variant scans (doi:10.1073/pnas.2313332121).

B1: TPR t1 (parent)
chain: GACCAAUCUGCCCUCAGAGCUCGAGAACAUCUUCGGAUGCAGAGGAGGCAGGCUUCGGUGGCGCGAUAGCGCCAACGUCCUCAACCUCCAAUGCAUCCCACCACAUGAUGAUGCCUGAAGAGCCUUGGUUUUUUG

- Variants of: B1
- method-summary: polymerase ribozyme fitness, log enrichment relative to wild type (log ratio); higher = more active; in vitro selection for triplet polymerase activity
Let's look at some variants and their measured polymerase ribozyme fitness (log ratio).

GACCAAUGUGCCCUCAGAGCUCGAGAACAUCUUCGGAUGCAGAGGAGGCAGGCUUCGGUGGCGCGAUAGGGCCAACGUCCUCAACCUCCAAUGCAUCCCACCACAUGAUGAUGCCUGAAGAGCCUUGGUUUUUUG; -1.84

Q: Would you mind telling me what polymerase ribozyme fitness (log ratio) value was observed for GACCAAUCUGCCCUCAGAGCUCGAGAACAUCUUCGGAUGCAGAGGAGGCAGGCUUCGGUGGCGCGAUAGCGCCAACGUCCUCAAUCUCCAAUGCAUCCCACCACAUGAUGAUGCCUGAAGAGCGUUGGUUUUUUG ?
Result: 0.923

Q: Given GACCAAUCUGCUCUCAGAGCUCGAGAACAUCUUCGGAUGCUGAGGAGGCAGGCUUAGGUGGCGCGAUAGCGCCAACGUCCUCAACCACCAAUGCAUCCCACCACAUGAUGAUGUCUGAAGAGCCUUGGUUUUUUG , state its recorded polymerase ribozyme fitness (log ratio).
Result: -3.21
